Reported growth inhibition by item:
Experiment: NCI Yeast Anticancer Drug Screen. Data for the rad50 strain (AID 155);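 note: 0% = growth of vehicle-only cultures of the same strain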
Conditions: S. cerevisiae rad50 strain growth inhibition; at 50.0 µM; active compounds read high
The panel holds about 79,000 compounds, 15% with a hit somewhere; the sample as a whole holds those more often.
Give just the numeric value; % need not be written.

I have this molecule here, CC(C)=CCNc1nc(Cl)nc2nc[nH]c12 , and I need its recorded growth inhibition. -28.1

I have this molecule here, COc1ccc(Nc2nc3cc(C(F)(F)F)ccc3nc2-c2ccccc2)cc1OC , and I need its recorded growth inhibition. 2.05

I have this molecule here, CN(C)/C=C/C(=O)c1ccccc1 , and I need its recorded growth inhibition. 61.6
